TARGET_UNDER_TEST: CCR2 (Homo sapiens)
Construct: (leukophoresis pack); host or cells: human peripheral blood mononuclear cells (PBMCs) from a normal human leukophoresis pack
Sequence (P41597 whole entry): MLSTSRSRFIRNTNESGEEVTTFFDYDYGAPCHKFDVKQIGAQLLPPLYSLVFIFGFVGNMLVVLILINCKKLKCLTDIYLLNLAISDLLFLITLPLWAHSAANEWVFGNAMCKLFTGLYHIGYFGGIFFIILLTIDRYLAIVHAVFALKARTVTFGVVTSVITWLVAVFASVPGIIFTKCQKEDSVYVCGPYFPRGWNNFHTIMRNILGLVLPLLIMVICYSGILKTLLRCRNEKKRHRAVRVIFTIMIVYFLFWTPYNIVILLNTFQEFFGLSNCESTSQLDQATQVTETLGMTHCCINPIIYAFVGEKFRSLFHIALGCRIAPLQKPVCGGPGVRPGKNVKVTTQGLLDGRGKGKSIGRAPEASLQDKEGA
ASSAY_INFO: hCCR2 (125-I hMCP-1) small molecule binding assay on human PBMCs
REPORTED_CONDITIONS: 125I-MCP-1, human PBMCs, 30 min preincubation; read-out: IC50 (nM) 30 min preinc
METRIC_NAME: IC50 (nM)
I only need the number, in nM, no unit after it.

// below: answered compounds
compound="CO[C@@H]1COCC[C@@H]1N[C@@H]1CC[C@@](C(=O)N2C[C@@H]3C[C@H]2CN3c2cc(F)cc(C(F)(F)F)c2)(C2CCOC2)C1 (stereo partly drawn) [Example 66]" target_under_test="CCR2 (Homo sapiens)" units_label=nM observed_value=1.7
compound="CO[C@@H]1COCC[C@@H]1N[C@@H]1CC[C@](CC(F)(F)F)(C(=O)N2C[C@@H]3C[C@H]2CN3c2cc(C(F)(F)F)ncn2)C1 [Example 32]" target_under_test="CCR2 (Homo sapiens)" units_label=nM observed_value=13.8
compound="CO[C@@H]1COCC[C@@H]1N[C@@H]1CC[C@@](C(=O)N2C[C@@H]3C[C@H]2CN3c2cncc(C(F)(F)F)n2)(C2(O)CCC2)C1 [Example 50]" target_under_test="CCR2 (Homo sapiens)" units_label=nM observed_value=7.14
compound="CO[C@@H]1COCC[C@@H]1N[C@@H]1CC[C@@](C(=O)N2C[C@@H]3C[C@H]2CN3c2ccnc(C(F)(F)F)c2)(C2(O)CCC2)C1 [Example 51]" target_under_test="CCR2 (Homo sapiens)" units_label=nM observed_value=22.8
compound="CC[C@]1(C(=O)N2C[C@@H]3C[C@H]2CN3c2ccnc(C(F)(F)F)n2)CC[C@@H](N[C@H]2CCOC[C@H]2OC)C1 [Example 5]" target_under_test="CCR2 (Homo sapiens)" units_label=nM observed_value=13.3
compound="CO[C@@H]1COCC[C@@H]1N[C@@H]1CC[C@](CC(F)F)(C(=O)N2C[C@@H]3C[C@H]2CN3c2cc(C(F)(F)F)ccn2)C1 [Example 25]" target_under_test="CCR2 (Homo sapiens)" units_label=nM observed_value=6.58
compound="CO[C@@H]1COCC[C@@H]1N[C@@H]1CC[C@@](C(=O)N2C[C@@H]3C[C@H]2CN3c2cc(C(F)(F)F)ccn2)(C2CCOC2)C1 (stereo partly drawn) [Example 61]" target_under_test="CCR2 (Homo sapiens)" units_label=nM observed_value=5.9
compound="CO[C@@H]1COCC[C@@H]1N[C@@H]1CC[C@@](C(=O)N2C[C@@H]3[C@H](O)[C@H]2CN3c2cc(C(F)(F)F)ccn2)(C(C)C)C1 [Example 68]" target_under_test="CCR2 (Homo sapiens)" units_label=nM observed_value=5.4
compound="CO[C@@H]1COCC[C@@H]1N[C@@H]1CC[C@@](C(=O)N2C[C@@H]3C[C@H]2CN3c2cccc(C(F)(F)F)n2)(C(C)(C)O)C1 [Example 57]" target_under_test="CCR2 (Homo sapiens)" units_label=nM observed_value=4.34
compound="CO[C@@H]1COCC[C@@H]1N[C@@H]1CC[C@@](C(=O)N2C[C@@H]3C[C@H]2CN3c2ccnc(C(F)(F)F)n2)(C2(O)CCC2)C1 [Example 48]" target_under_test="CCR2 (Homo sapiens)" units_label=nM observed_value=25.3

Please report the recorded IC50 for CO[C@@H]1COCC[C@@H]1N[C@@H]1CC[C@@](C(=O)N2C[C@@H]3C[C@H]2CN3c2ccnc(C(F)(F)F)c2)(C(C)C)C1 [Example 17] . 13.7

Please report the recorded IC50 for CO[C@@H]1COCC[C@@H]1N[C@@H]1C=C[C@@](C(=O)N2C[C@@H]3C[C@H]2CN3c2nccc(C(F)(F)F)n2)(C(C)C)C1 [Example 41] . 63.6

Please report the recorded IC50 for CO[C@@H]1COCC[C@@H]1N[C@@H]1CC[C@@](C(=O)N2C[C@@H]3C[C@H]2CN3c2cc(C(F)(F)F)ccn2)(C2(O)CCC2)C1 [Example 46] . 3.19
